Data provenance is patent US20110098296A1.

Please go through the items and note down their pIC50.
- System: HN5 tumor cells
- PROCEDURE_DETAILS: Method C: Cell Growth Inhibition Assay (CellTiter-Glo), HN5
- Assay type: cell-based
- REPORTED_CONDITIONS: Homo sapiens, 72 h, 3 days, 4-parameter fit
- Protocol: Human breast tumor cells (BT474) were cultured in RPMI (Mediatech 50-011-PB), containing 10% FBS (JRH Biosciences 12176) and 1% penicillin-streptomycin (Invitrogen 15140). […] Cells were harvested using trypsin/EDTA (Invitrogen 25200), counted using an haemocytometer, and plated. […] Total ATP was measured (as a surrogate estimate of cell number) using CellTiter-Glo® reagent (Promega G7571). […] Percent inhibition of cell growth was calculated relative to DMSO vehicle-treated control wells. […]
pIC50: −log10 of the molar value. Where a name gives a salt, the structure may show the parent alone.

Request: pIC50, test system HN5 tumor cells, entry COc1ccc(Nc2nccc(-c3sc(N)nc3-c3cccc(NC(=O)c4c(F)cccc4F)c3)n2)cc1OCCN(C)C
> 7.00

Request: pIC50, test system HN5 tumor cells, entry Cc1nc(-c2cccc(NC(=O)c3c(F)cccc3F)c2)c(-c2ccnc(Nc3ccc(OC4CCN(C(C)C)CC4)c(F)c3)n2)s1
6.00 to 7.00

Request: pIC50, test system HN5 tumor cells, entry CS(=O)(=O)CCN1CCN(c2ccc(Nc3nccc(-c4scnc4-c4cccc(NC(=O)c5c(F)cccc5F)c4)n3)cc2F)CC1
> 7.00

Request: pIC50, test system HN5 tumor cells, entry NS(=O)(=O)CCc1cccc(Nc2nccc(-c3scnc3-c3cccc(NC(=O)c4cc(F)ccc4F)c3)n2)c1 [Example 100, trifluoroacetate]
> 7.00

Request: pIC50, test system HN5 tumor cells, entry CN(C)CCOc1ccc(Nc2nccc(-c3sc(N)nc3-c3cc(NC(=O)c4c(F)cccc4F)ccc3F)n2)cc1Cl
> 7.00

Request: pIC50, test system HN5 tumor cells, entry Cc1nc(-c2cccc(NC(=O)c3c(F)cccc3F)c2)c(-c2ccnc(Nc3ccc(OCCN(C)C)c(Cl)c3)n2)s1
> 7.00

Request: pIC50, test system HN5 tumor cells, entry CN(C)CCOc1ccc(Nc2nccc(-c3sc(NCCCN4CCOCC4)nc3-c3cccc(NC(=O)c4c(F)cccc4F)c3)n2)cc1Cl
6.00 to 7.00

###

- System: Colo205 tumor cells
- PROCEDURE_DETAILS: Method C: Cell Growth Inhibition Assay (CellTiter-Glo), Colo205
- Type: cell-based
- REPORTED_CONDITIONS: Homo sapiens, COLO 205, 72 h, 3 days, 4-parameter fit
- Procedure: Human breast tumor cells (BT474) were cultured in RPMI (Mediatech 50-011-PB), containing 10% FBS (JRH Biosciences 12176) and 1% penicillin-streptomycin (Invitrogen 15140). […] Cells were harvested using trypsin/EDTA (Invitrogen 25200), counted using an haemocytometer, and plated. […] Total ATP was measured (as a surrogate estimate of cell number) using CellTiter-Glo® reagent (Promega G7571). […] Percent inhibition of cell growth was calculated relative to DMSO vehicle-treated control wells. […]
VALUE_TYPE: IC50

Entry under review: CN(C)CCOc1ccc(Nc2nccc(-c3sc(N)nc3-c3cccc(NC(=O)c4c(F)cccc4F)c3)n2)cc1Cl . Reported IC50?
100 to 1000 nM

Entry under review: CCc1nc(-c2cccc(NC(=O)c3c(F)cccc3F)c2)c(-c2ccnc(Nc3cccc(CN4CCCC4)c3)n2)s1 . Reported IC50?
100 to 1000 nM

Entry under review: Cc1nc(-c2cccc(NC(=O)c3c(F)cccc3F)c2)c(-c2ccnc(Nc3cccc(CN4CCCC4)c3)n2)s1 . Reported IC50?
100 to 1000 nM

Entry under review: CS(=O)(=O)CCN1CCN(c2ccc(Nc3nccc(-c4scnc4-c4cccc(NC(=O)c5c(F)cccc5F)c4)n3)cc2F)CC1 . Reported IC50?
> 1000 nM

Entry under review: CN(C)CCOc1cccc(Nc2nccc(-c3sc(N4CCCCC4)nc3-c3cccc(NC(=O)c4c(F)cccc4F)c3)n2)c1 . Reported IC50?
100 to 1000 nM

Entry under review: CN(C)C1Cc2ccc(Nc3nccc(-c4sc(N)nc4-c4cccc(NC(=O)c5c(F)cccc5F)c4)n3)cc2C1 (centres unmarked) . Reported IC50?
100 to 1000 nM

Entry under review: Cc1cc(-c2sc(N)nc2-c2cccc(NC(=O)c3c(F)cccc3F)c2)nc(Nc2cccc(F)c2)n1 . Reported IC50?
> 1000 nM

Entry under review: O=C(Nc1cccc(-c2nc(N3CCCCC3)sc2-c2ccnc(Nc3cccc(CN4CCCC4)c3)n2)c1)c1c(F)cccc1F . Reported IC50?
100 to 1000 nM
